# target_entity: BTK recombinant protein (Homo sapiens (Human))
# Sequence (Q06187 whole entry): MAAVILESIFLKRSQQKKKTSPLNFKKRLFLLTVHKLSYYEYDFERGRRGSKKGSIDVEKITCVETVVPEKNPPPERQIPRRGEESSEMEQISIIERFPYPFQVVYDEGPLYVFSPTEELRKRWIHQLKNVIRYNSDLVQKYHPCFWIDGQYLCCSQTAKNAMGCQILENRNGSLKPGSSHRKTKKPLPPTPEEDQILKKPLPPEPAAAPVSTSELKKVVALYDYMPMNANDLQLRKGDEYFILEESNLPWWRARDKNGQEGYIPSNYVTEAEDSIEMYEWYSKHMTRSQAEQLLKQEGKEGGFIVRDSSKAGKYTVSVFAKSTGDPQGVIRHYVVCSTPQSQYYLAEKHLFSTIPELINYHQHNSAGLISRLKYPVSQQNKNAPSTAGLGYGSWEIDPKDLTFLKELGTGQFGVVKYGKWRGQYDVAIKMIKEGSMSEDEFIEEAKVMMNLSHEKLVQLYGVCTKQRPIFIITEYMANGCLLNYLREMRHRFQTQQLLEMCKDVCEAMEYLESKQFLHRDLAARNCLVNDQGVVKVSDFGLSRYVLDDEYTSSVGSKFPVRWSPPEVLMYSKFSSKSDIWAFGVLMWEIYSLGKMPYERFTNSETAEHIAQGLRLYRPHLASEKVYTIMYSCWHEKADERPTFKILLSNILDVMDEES
# assay_text: Determination of biochemical BTK (Z'-LYTE kinase assay)
# reported pIC50; entries follow
Would you please state pIC50, meaning minus log10 of the concentration in mol/L, as a bare number?

{"molecule": "CCn1cc(Nc2cc(-c3ccnc(-n4ccn5c6c(cc5c4=O)CCC6)c3CO)cn(C)c2=O)nn1 [Compound 138]", "value": 6.66}
{"molecule": "C[C@H]1CN(C2COC2)CCN1c1ccc(Nc2cc(-c3ccnc(-n4ccn5c(cc6cccnc65)c4=O)c3CO)cn(C)c2=O)nc1 [Compound 67]", "value": 7.09}

We next turn to a different molecule, shown below.
Write down the reported pIC50 of C[C@H]1CN(C2COC2)CCN1c1ccc(Nc2cc(-c3ccnc(-n4ccn5c6c(cc5c4=O)CCC(F)(F)C6)c3CO)cn(C)c2=O)nc1 [Compound 56] , test system: BTK recombinant protein (Homo sapiens (Human)).
7.70
